// provenance: ChEMBL document CHEMBL1154167

target: Voltage-gated inwardly rectifying potassium channel KCNH2 (Homo sapiens, UniProt Q12809); assay: Inhibition of human ERG by patch-clamp assay
Sequence (Q12809 whole entry): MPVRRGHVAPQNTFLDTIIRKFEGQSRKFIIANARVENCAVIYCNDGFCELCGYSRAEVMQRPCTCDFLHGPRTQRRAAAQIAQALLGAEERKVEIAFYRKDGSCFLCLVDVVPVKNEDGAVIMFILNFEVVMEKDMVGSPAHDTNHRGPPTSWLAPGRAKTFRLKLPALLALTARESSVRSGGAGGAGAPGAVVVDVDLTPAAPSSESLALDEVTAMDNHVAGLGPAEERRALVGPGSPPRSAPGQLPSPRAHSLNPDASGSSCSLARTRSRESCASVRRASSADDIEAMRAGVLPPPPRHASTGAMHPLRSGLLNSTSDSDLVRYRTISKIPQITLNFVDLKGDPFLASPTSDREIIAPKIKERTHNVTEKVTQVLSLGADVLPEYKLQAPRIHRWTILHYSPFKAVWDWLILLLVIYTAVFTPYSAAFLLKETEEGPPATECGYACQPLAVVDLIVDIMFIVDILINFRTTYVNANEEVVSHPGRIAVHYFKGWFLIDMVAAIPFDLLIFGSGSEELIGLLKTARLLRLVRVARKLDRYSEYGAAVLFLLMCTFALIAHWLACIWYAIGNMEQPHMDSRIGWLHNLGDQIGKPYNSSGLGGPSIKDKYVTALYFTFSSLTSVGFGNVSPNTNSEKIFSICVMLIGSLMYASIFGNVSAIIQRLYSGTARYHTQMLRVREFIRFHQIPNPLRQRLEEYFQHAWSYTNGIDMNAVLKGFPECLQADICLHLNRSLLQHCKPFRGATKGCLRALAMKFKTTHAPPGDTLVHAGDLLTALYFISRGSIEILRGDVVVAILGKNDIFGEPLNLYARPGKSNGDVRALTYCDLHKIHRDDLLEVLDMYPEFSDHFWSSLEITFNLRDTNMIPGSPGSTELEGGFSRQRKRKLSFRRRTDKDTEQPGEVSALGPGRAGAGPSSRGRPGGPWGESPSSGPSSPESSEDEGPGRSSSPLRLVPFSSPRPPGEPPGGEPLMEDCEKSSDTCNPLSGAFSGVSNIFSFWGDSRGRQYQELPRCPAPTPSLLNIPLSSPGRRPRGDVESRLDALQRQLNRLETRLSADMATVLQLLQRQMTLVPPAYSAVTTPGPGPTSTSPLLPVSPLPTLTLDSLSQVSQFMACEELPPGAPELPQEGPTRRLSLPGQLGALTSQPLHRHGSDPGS
Field: IC50. Provide a value for each of the compounds that follow.
Reply numerically in µM, unit not repeated.

Q: Quickly give me recorded IC50 for CC[C@H]1OC(=O)[C@H](C)C(=O)[C@H](C)[C@@H](O[C@@H]2O[C@H](C)C[C@H](N(C)C)[C@H]2O)[C@](C)(O)C[C@@H](C)C(=O)[C@H](C)[C@H]2N(C3CN(Cc4ccnc5ncccc45)C3)C(=O)O[C@]12C
Result: 80

Q: Give reported IC50 value for CC[C@H]1OC(=O)[C@H](C)C(=O)[C@H](C)[C@@H](O[C@@H]2O[C@H](C)C[C@H](N(C)C)[C@H]2O)[C@](C)(O)C[C@@H](C)C(=O)[C@H](C)[C@H]2N(C3CN(Cc4ccnc5cccnc45)C3)C(=O)O[C@]12C
Result: 196

Q: Identify measured IC50 corresponding to CC[C@H]1OC(=O)[C@H](C)C(=O)[C@H](C)[C@@H](O[C@@H]2O[C@H](C)C[C@H](N(C)C)[C@H]2O)[C@](C)(O)C[C@@H](C)C(=O)[C@H](C)[C@H]2N(C3CN(Cc4c(O)cnc5cccnc45)C3)C(=O)O[C@]12C
Result: 67

Q: Answer with the recorded IC50 of CC[C@H]1OC(=O)[C@H](C)C(=O)[C@H](C)[C@@H](O[C@@H]2O[C@H](C)C[C@H](N(C)C)[C@H]2O)[C@](C)(O)C[C@@H](C)C(=O)[C@H](C)[C@H]2N(C3CN(Cc4c(O)cnc5ncccc45)C3)C(=O)O[C@]12C only.
Result: 140

Q: Please indicate IC50 recorded for CC[C@H]1OC(=O)[C@H](C)C(=O)[C@H](C)[C@@H](O[C@@H]2O[C@H](C)C[C@H](N(C)C)[C@H]2O)[C@](C)(OC)C[C@@H](C)C(=O)[C@H](C)[C@H]2N(CCCCn3cnc(-c4cccnc4)c3)C(=O)O[C@]12C
Result: 40

Q: Look up and state reported IC50 for CC[C@H]1OC(=O)[C@H](C)C(=O)[C@H](C)[C@@H](O[C@@H]2O[C@H](C)C[C@H](N(C)C)[C@H]2O)[C@](C)(O)C[C@@H](C)C(=O)[C@H](C)[C@H]2N(C3CN([C@H](C)c4ccnc5ncccc45)C3)C(=O)O[C@]12C
Result: 43
